Target: DGKalpha (Homo sapiens)
Sequence (P23743 whole entry): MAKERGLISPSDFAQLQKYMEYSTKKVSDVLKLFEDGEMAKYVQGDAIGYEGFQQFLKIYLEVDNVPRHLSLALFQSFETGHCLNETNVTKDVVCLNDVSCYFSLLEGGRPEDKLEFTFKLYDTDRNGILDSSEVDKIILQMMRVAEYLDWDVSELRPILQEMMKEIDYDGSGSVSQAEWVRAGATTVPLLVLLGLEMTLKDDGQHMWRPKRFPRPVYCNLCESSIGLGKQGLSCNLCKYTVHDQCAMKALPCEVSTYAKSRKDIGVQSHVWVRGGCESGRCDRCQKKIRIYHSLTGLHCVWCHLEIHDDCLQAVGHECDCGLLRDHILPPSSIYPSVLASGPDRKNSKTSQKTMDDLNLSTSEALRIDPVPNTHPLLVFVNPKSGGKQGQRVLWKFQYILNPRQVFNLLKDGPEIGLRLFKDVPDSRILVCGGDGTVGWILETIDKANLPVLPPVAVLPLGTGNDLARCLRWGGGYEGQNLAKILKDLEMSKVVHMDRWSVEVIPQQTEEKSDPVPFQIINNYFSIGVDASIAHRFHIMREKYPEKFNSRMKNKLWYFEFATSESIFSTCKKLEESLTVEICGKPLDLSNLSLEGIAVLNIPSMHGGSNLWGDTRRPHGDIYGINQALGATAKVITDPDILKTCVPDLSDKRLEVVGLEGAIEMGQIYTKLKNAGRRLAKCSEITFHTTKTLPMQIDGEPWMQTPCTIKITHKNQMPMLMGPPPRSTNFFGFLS
Experiment: In vitro DGK inhibition assay (ADP-Glo, liposomes), DGKalpha
Assay type: biochemical
Set-up: hDGKalpha(1-735)-N-His; His (N); made in house; host or cells: Sf21 insect cells (baculovirus)
Settings: 4 nM DGK α, 25 μM ATP, 125 uM DLG in liposomes, 1 hour reaction
Procedure: DGK α and ζ kinases use ATP to phosphorylate the substrate 1,2-dilauroyl-sn-glycerol (DLG, incorporated in the liposomes). ATP is converted to ADP as a result of this enzymatic reaction. After the kinase reaction, an ATP-depletion reagent is added to terminate the kinase reaction and deplete any remaining ATP, leaving only ADP. […]
Binary call on IC50 with cut-off 2000 nM: strictly below means 1 (yes), and equality or higher means 0 (no).

Query: IC50 strictly < 2000 nM for this compound? "COc1ccc(-c2ccc(CN3C(=O)[C@@H](N)CS(=O)(=O)c4cc(F)c(-c5noc(C(C)(C)S(C)(=O)=O)n5)cc43)cc2)cc1"
Response: 0 (no)

Query: IC50 strictly < 2000 nM for this compound? "CC(C)(c1nnc(-c2cc3c(cc2F)S(=O)(=O)C[C@H](N)C(=O)N3Cc2ccc(-c3noc(C(F)(F)F)n3)cc2)o1)S(C)(=O)=O"
Response: 1 (yes)

Query: IC50 strictly < 2000 nM for this compound? "CC(C)(c1nnc(-c2cc3c(cc2F)S(=O)(=O)C[C@H](N)C(=O)N3Cc2ccc(OC(F)(F)C(F)F)cc2)o1)S(C)(=O)=O"
Response: 1 (yes)

Query: IC50 strictly < 2000 nM for this compound? "CC(C)(c1nnc(-c2ccc3c(c2)N(Cc2ccc(Oc4cccc(C(F)(F)F)c4)cc2)C(=O)[C@@H](N)CS3(=O)=O)o1)S(C)(=O)=O"
Response: 0 (no)

Query: IC50 strictly < 2000 nM for this compound? "CC(C)(c1nnc(-c2ccc3c(c2)N(Cc2ccc(-c4ccc(OC(F)(F)F)cn4)cc2)C(=O)[C@@H](N)CS3(=O)=O)o1)S(C)(=O)=O"
Response: 1 (yes)

Query: IC50 strictly < 2000 nM for this compound? "CC(C)(c1nnc(-c2ccc3c(c2)N(Cc2ccc(Oc4cccc(F)c4)cc2)C(=O)[C@@H](N)CS3(=O)=O)o1)S(C)(=O)=O"
Response: 0 (no)

Query: IC50 strictly < 2000 nM for this compound? "CC(C)(c1nnc(-c2cc3c(cc2F)S(=O)(=O)C[C@H](N)C(=O)N3Cc2ccc(-c3ccc(C(F)(F)F)nc3)cc2)o1)S(C)(=O)=O"
Response: 1 (yes)

Query: IC50 strictly < 2000 nM for this compound? "CC(C)(c1nnc(-c2ccc3c(c2)N(Cc2ccc(OC(F)(F)C(F)F)cc2)C(=O)[C@@H](N)CS3(=O)=O)o1)S(C)(=O)=O"
Response: 1 (yes)

Query: IC50 strictly < 2000 nM for this compound? "Cc1cccc(Oc2ccc(CN3C(=O)[C@@H](N)CS(=O)(=O)c4ccc(-c5nnc(C(C)(C)S(C)(=O)=O)o5)cc43)cc2)c1"
Response: 1 (yes)

Query: IC50 strictly < 2000 nM for this compound? "CC(C)(c1nnc(-c2ccc3c(c2)N(Cc2ccc(-c4ccc(C(F)(F)F)cn4)cc2)C(=O)[C@@H](N)CS3(=O)=O)o1)S(C)(=O)=O"
Response: 1 (yes)

Query: IC50 strictly < 2000 nM for this compound? CC(C)(c1nc(-c2cc3c(cc2F)[S+]([O-])C[C@H](N)C(=O)N3Cc2ccc(Oc3ccccc3)cc2)no1)S(C)(=O)=O (stereo partly shown) [Example 52]
Response: 1 (yes)

Query: IC50 strictly < 2000 nM for this compound? "CC(C)(c1nnc(-c2ccc3c(c2)N(Cc2ccc(OCc4ccccc4)cc2)C(=O)[C@@H](N)CS3(=O)=O)o1)S(C)(=O)=O"
Response: 1 (yes)

Query: IC50 strictly < 2000 nM for this compound? "CC(C)(c1nnc(-c2ccc3c(c2)N(Cc2ccc(OCC(F)(F)F)cc2)C(=O)[C@@H](N)CS3(=O)=O)o1)S(C)(=O)=O"
Response: 1 (yes)
